Provenance of the data: patent US20140087995A1

Molecular target: T1, human calcitonin receptor (human, UniProt P30988 25-474)
T1 construct: whole, on cells; membranes of stably transfected BHK cells (Assay VII); also called hCTR; hCT
T1 sequence (looked up): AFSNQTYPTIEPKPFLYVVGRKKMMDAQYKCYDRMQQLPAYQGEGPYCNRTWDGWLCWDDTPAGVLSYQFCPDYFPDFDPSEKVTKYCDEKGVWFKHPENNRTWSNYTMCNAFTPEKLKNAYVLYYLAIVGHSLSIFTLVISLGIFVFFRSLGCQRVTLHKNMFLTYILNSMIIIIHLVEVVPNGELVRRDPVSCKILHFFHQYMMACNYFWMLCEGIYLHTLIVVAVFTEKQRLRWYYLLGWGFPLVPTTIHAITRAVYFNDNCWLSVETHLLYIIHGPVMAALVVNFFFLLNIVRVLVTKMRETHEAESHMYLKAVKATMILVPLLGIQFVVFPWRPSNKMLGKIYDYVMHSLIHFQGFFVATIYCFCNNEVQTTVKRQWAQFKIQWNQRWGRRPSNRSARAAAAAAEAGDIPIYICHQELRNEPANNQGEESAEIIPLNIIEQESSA
Test: IC50 on human calcitonin receptor divided by IC50 on human amylin receptor (SPA competition)
Numbered stars: 1 amine (or outer) side, 2 acyl side, 3 side chain; on linkers, the order of the positions; unused ones are H or OH. Bridge positions count the residues as written; N and C are the ends. Side chains are listed from the residue outwards. Ends that are not written are not given here. * marks the point of attachment. C20 diacid = O=C(O)CCCCCCCCCCCCCCCCCCC(=O)*; γGlu = O=C(O)[C@H](CCC(=O)[*:2])N[*:1]; AEEA = NCCOCCOCC(=O)O
observedProperty: Ratio hCT/hAmylin binding

Sample records with Ratio hCT/hAmylin binding:
binder	Ratio hCT/hAmylin binding
K([AEEA-AEEA-γGlu-C20 diacid])CNTATCATQRLANFLRHSSPNFGAIPSSTNVGSETY-NH2 (disulfide 2-7 (inferred), analogue of human amylin; also called compound 25)	56.5
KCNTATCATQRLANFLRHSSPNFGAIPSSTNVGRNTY (C20 diacid-gGlu on the alpha amino group of the N-terminal residue (Lys 1); disulfide bridge between the two Cys residues; C-terminal amide, analogue of human amylin; also called compound 39) [N^α1-[(4S)-4-carboxy-4-(19-carboxynonadecanoylamino)butanoyl]-[Arg17,Pro21,Pro27,Arg34]-h-amylin]	29
K([γGlu-C20 diacid])CNTATCATQRLANFLRHSSPNFGAIPSSTNVGSNTY-NH2 (disulfide 2-7 (inferred), analogue of human amylin; also called compound 48) [N^ε1-[(4S)-4-carboxy-4-(19-carboxynonadecanoylamino)butanoyl]-[Arg17,Pro21,Pro27]-h-amylin]	69.7

[I] K([γGlu-γGlu-C20 diacid])CNTATCATQRLADFLRHSSNPFGAPLSSTNVGSDTY-NH2 (disulfide 2-7 (inferred), analogue of human amylin; also called compound 3)
[II] {C20 diacid-γGlu}-GRCNTATCATQRLANFLRHSSPNFGAIPSSTNVGSHTY-NH2 (disulfide 3-8 (inferred), analogue of human amylin extended by Gly at the N-terminus; also called compound 47)
Ask: Select one. Lower Ratio hCT/hAmylin binding: I or II API: response body contains the label of the selected item.
Result: I
